# Tested on: Mycobacterium tuberculosis
# protocolText: Time dependent F-Tre uptake, HPAEC-PAD of cytosolic extracts
# Format: cell-based
# conditionDetails: Time 4 h, 100 µM probe
Measured Mtb cytosolic concentration, listed per entry for reference.
Express it in µM; write the number only.

Below are worked cases with known answers.
OC[C@H]1O[C@H](O[C@H]2O[C@H](CF)[C@@H](O)[C@H](O)[C@H]2O)[C@H](O)[C@@H](O)[C@@H]1O	2945
OC[C@H]1O[C@H](O[C@H]2O[C@H](CO)[C@@H](O)[C@H](F)[C@H]2O)[C@H](O)[C@@H](O)[C@@H]1O	3016
OC[C@H]1O[C@H](O[C@H]2O[C@H](CO)[C@@H](O)[C@H](O)[C@H]2F)[C@H](O)[C@@H](O)[C@@H]1O	2917

The reported Mtb cytosolic concentration of the compound OC[C@H]1O[C@H](O[C@H]2O[C@H](CO)[C@@H](F)[C@H](O)[C@H]2O)[C@H](O)[C@@H](O)[C@@H]1O was 0
